Values compiled from patent US20120232062A1.

The following compounds are shown together with reported concentration at 8 h values.
Assay: In vivo rat pharmacokinetic studies
Conditions: plasma, 20 mg/kg; rat, PO 20 mpk, 8 h; read-out: Plasma
Express your answer in ng/mL, writing the number without its unit.

In [3]: df
Out[3]:
                                item_smiles                metric  units_of_measure  value_measured
0  CCN1CCC(NC(=O)c2nn(C)c3nc(N4CCCCCC4)ccc23)CC1  concentration at 8 h             ng/mL               0
1  Cn1nc(C(=O)NC2CCN(CCN3CCCCC3)CC2)c2ccc(N3CCCCCC3)nc21  concentration at 8 h             ng/mL             2.9

I have this compound here, `CC(C)N1CCC(NC(=O)c2nn(C)c3nc(N4CCCCCC4)ccc23)CC1` , and I need its recorded concentration at 8 h.
0

---

Tested on: HCV genotype 1b
Experiment: HCV 1b replicon luciferase assay
Format: cell-based
Details: Hepatitis C virus, Huh-7, 48 h, Table 1; Huh7 HCV 1b replicon, luciferase reporter, 48 hours; read-out: 1b EC50
Experimental: A suitable 1b HCV RNA replicon assay uses the Huh7 cell line which contains an HCV 1b RNA replicon with a stable luciferase (LUC) reporter. This construct contains modifications that make the cell line more robust and provides stable LUC expression for antiviral screening. […] Remove the 96-well assay plate from the 37° C./5% CO2 incubator, examine the cell morphology under an inverted microscope. […] Measure the luminescence with Envision (Perkin Elmer) with an integration time of 2 seconds. […]
For each record, check the reported EC50: if it is below 2000 nM write yes (1), else write no (0).

A selection of reference data follows.
                                   compound   group
0  CC1CCCCN1CCOCc1nn(C)c2nc(N3CCCCCC3)ccc12 (centres unmarked)  no (0)
1  O=C(NC1CCNCC1)c1nn2c3nc(ccc13)OC/C=C/CCCCC2  no (0)
2  CCC(CC)Oc1ccc2c(C(=O)NC3CCCNC3)nn(Cc3ccc(Cl)cc3)c2n1 (centres unmarked)  no (0)
3  Cn1nc(NC(=O)C2CCNCC2)c2ccc(N3CCCCCC3)nc21  no (0)
4  Cn1nc(-c2ncc(-c3ccc(Br)cc3)[nH]2)c2ccc(N3CCCCCC3)nc21  no (0)

Please determine if `O=C(Nc1n[nH]c2nc(N3CCCCCC3)ccc12)C1CCNCC1` is below 2000 nM in terms of EC50.
no (0)

---

Test: Liver microsome stability, human
Assay type: in vitro ADME
Conditions: after 30 min
Metric: human liver microsome (HLM, % parent remaining)
Expressed in % parent remaining, but write only the number.

// solved cases for human liver microsome (HLM, % parent remaining) follow
>>> print(df.to_string())
                                   molecule  value_measured
0    Cn1nc(CCCN2CCCC2)c2ccc(N3CCCCCCC3)nc21              44
1  Cn1nc(C(=O)NC2CCN(CC(F)F)CC2)c2ccc(N3CCCCCC3)nc21             0.4
2  Cn1nc(C(=O)NC2CCN(CCN3CCCCC3)CC2)c2ccc(N3CCCCCC3)nc21 [compound 1047]              62

Now for another entry.
human liver microsome (HLM, % parent remaining) lookup needed for Cn1nc(C(=O)NC2CCN(CCN3CCCC3)CC2)c2ccc(N3CCCCCC3)nc21 [EBP1597] , thanks.
74
